Tested System: UniProtKB P29475
Counter-ions that a name gives are not always drawn.
Parameter Measured: pIC50
Entry type: numeric. Quantity: pIC50, the -log10 of concentration in molar units.

Query: Could you share which pIC50 value was measured for NC1=Nc2cc(CCNCc3cccc(Cl)c3)c(Cl)cc2C2CCCC12 (stereo not shown) [Example 8, Dihydrochloride] ?
Response: 6.72
